method_notes: fission yeast growth modulation, primary screen, strain 972, OD600, 24 h, no modulator (AID 1090);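 also: basal condition with compound alone and no growth modifier present; test concentration not given here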
test_context: S. pombe 972 growth, higher = more signal, called active from +8 up or from −8 down
Using z-score as the sorting value, the categories are low end (below -0.5), middle (-0.5 to below 0.1), high end (0.1 or more)

1. C=CCNC(=O)[C@@H]1[C@H]2C(=O)O[C@H](c3ccccc3)[C@H](c3ccccc3)N2[C@H](c2ccc(OCCO)cc2)[C@@]12C(=O)N(C(=O)OCCOC)c1ccc(C#CC3=CCCCC3)cc12	high end
2. CO[C@H]1O[C@H](CO)[C@@H](OC(=O)Nc2ccc(C(F)(F)F)cc2)[C@H](OC(=O)Nc2ccc3c(c2)OCO3)[C@H]1OC(=O)Nc1ccc2c(c1)OCO2	high end
3. C[n+]1ccc(CCCO)cc1	low end

Prompt: For CC[C@@H]1[C@H]2C3C(=O)N(CC)C(=O)C3CC(=O)[C@H]2[C@H](c2ccc(C)cc2)N1S(=O)(=O)c1ccc(C)cc1 (stereo not given in full) , which z-score bin applies?
Response: high end

Prompt: For COc1ccc([Si](C)(C)[C@@H]2[C@@H](CCO)O[C@]3(C(=O)N(Cc4cccc(N5C(=O)c6ccccc6Oc6ccccc65)c4)c4ccccc43)[C@H]2C)cc1 , which z-score bin applies?
Response: middle

Prompt: For CCOC(=O)C[C@H]1[C@H](OC(=O)c2ccccc2-c2ccccc2)[C@@H](NC(=O)CC(C)C)c2cc(OCCCO)ccc2N1C(=O)c1ccc2ccccc2n1 , which z-score bin applies?
Response: middle

Prompt: For COC(=O)[C@@]1(Cc2ccc(F)cc2)[C@H]2c3cc(C(=O)N4CCCC4)n(CCc4c[nH]c5ccc(OC)cc45)c3C[C@H]2CN1C(=O)c1ccccc1 , which z-score bin applies?
Response: middle

Prompt: For COCCOC(=O)N1C(=O)[C@@]2(c3cc(C#CC4(O)CCCCCC4)ccc31)[C@H](C(=O)N1CCCCCCC1)[C@H]1C(=O)O[C@H](c3ccccc3)[C@H](c3ccccc3)N1[C@@H]2c1ccc(OCCO)cc1 , which z-score bin applies?
Response: high end

----------
The following molecules are listed with their measured composite z-score values.
measurement_target: Dihydroorotate dehydrogenase (quinone), mitochondrial (Plasmodium falciparum (isolate 3D7))
method_notes: PfDHODH enzyme inhibitors, primary screen, biochemical, C-terminal His tag, absorbance 600 nm (AID 1175);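 also: recombinant parasite enzyme with a five histidine tag at its C terminus; test concentration not given here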
test_context: DCIP absorbance 600 nm, higher = more signal, called active from +8 up or from −8 down
Respond with the number and no other words.

Example cases with answers are listed next.
1) C=C[C@H](COC(C)=O)NS(=O)(=O)c1ccc(Br)cc1	-1.08
2) COC(=O)[C@@]1(Cc2ccccc2)[C@H]2c3cc(C(=O)N4CCCC4)[nH]c3C[C@H]2CN1C(=O)c1ccccc1	-0.171
3) CCOC(=O)C1=CC[C@@H](c2ccc([N+](=O)[O-])cc2)N(S(=O)(=O)c2ccc(C)cc2)[C@H]1c1ccccc1	0.914

// switching to the query molecule
Prompt: // returns reported composite z-score for input COc1ccc(NC(=O)O[C@H]2[C@H](OC(=O)Nc3ccc4c(c3)OCO4)[C@@H](OC(=O)Nc3ccc4c(c3)OCO4)[C@@H](OC)O[C@@H]2CO)cc1
Response: -0.445

----------
measurement_target: Dihydroorotate dehydrogenase (quinone), mitochondrial (Plasmodium falciparum (isolate 3D7))
method_notes: PfDHODH enzyme inhibitors, primary screen, biochemical, C-terminal His tag, absorbance 600 nm (AID 1175);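 also: recombinant parasite enzyme with a five histidine tag at its C terminus; test concentration not given here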
test_context: DCIP absorbance 600 nm, higher = more signal, called active from +8 up or from −8 down
Using composite z-score as the sorting value, the categories are bucket 1 (below -1), bucket 2 (-1 to below -0.4), bucket 3 (-0.4 or more)

1. C=CCN1C(=O)[C@@]2(O[C@@H](CCO)[C@H]([Si](C)(C)c3ccc(OC)cc3)[C@H]2C)c2cc(N3C(=O)c4ccccc4Oc4ccccc43)ccc21	bucket 3
2. CCOc1cc(C(O)C2C=CC3C(=O)N(C4CCCCC4)C(=O)C3N2Nc2ccc(OC)cc2)ccc1O (stereo unspecified)	bucket 2
3. COCCOC(=O)N1C(=O)[C@@]2(c3ccccc31)[C@H](C(=O)N1CCN(c3ncccn3)CC1)[C@H]1C(=O)O[C@H](c3ccccc3)[C@H](c3ccccc3)N1[C@@H]2c1ccc(OCCO)cc1	bucket 1

Prompt: For C=C(C(=O)CC[C@H](OC(C)=O)c1cccc(OCCO)c1)C(C)C , which composite z-score bin applies?
Response: bucket 2

Prompt: For COCC(=C=CC[C@H](O)c1cccc(OCCO)c1)C[C@H](O)c1ccccn1 , which composite z-score bin applies?
Response: bucket 2

Prompt: For CC(C)CNC(=O)[C@@]1(c2ccc([N+](=O)[O-])cc2)CC(=O)N(C2CCCCC2)[C@@H]1c1ccc(CO)cc1I , which composite z-score bin applies?
Response: bucket 3

Prompt: For C=C[C@@H](C)[C@H](OC(=O)Nc1ccc(SC)cc1)c1ccc(OCCO)cc1 , which composite z-score bin applies?
Response: bucket 1

Prompt: For COCCOC(=O)N1C(=O)[C@@]2(c3cc(C#CC4(O)CCCCCC4)ccc31)[C@H](C(=O)N1CCCCCCC1)[C@H]1C(=O)O[C@H](c3ccccc3)[C@H](c3ccccc3)N1[C@@H]2c1ccc(OCCO)cc1 , which composite z-score bin applies?
Response: bucket 1

Prompt: For COC(=O)C[C@H]1O[C@]2(C(=O)N(C)c3ccccc32)[C@@H](C)[C@@H]1[Si](C)(C)c1ccc(C)cc1 , which composite z-score bin applies?
Response: bucket 3

Prompt: For O=c1cccc(-c2ccc(C(F)(F)F)cc2)o1 , which composite z-score bin applies?
Response: bucket 2

Prompt: For CCOC(=CC(=O)OC)CC(O)c1cccc(Cl)c1 (stereo unspecified) , which composite z-score bin applies?
Response: bucket 1

Prompt: For C[C@H]1ON(c2ccc(C(=O)OC(C)(C)C)cc2)[C@@H](c2ccc(O)cc2)[C@@H]1C(=O)N1C(=O)OC[C@@H]1c1ccccc1 , which composite z-score bin applies?
Response: bucket 3

Prompt: For CC(C)CN1C(=O)[C@@]2(Cc3ccccc31)c1ccccc1C(=O)N(Cc1ccccc1C(F)(F)F)[C@H]2c1ccc(CO)cc1 , which composite z-score bin applies?
Response: bucket 1

Prompt: For CCCC[C@@H]1C[C@H]1[C@@H](NC(=O)c1cccnc1)c1ccc(-c2ccccc2)cc1 , which composite z-score bin applies?
Response: bucket 3

Prompt: For CC(C)C(=C=CC[C@@H](O)c1ccccc1OCCO)C[C@@H](O)COCc1ccccc1 , which composite z-score bin applies?
Response: bucket 1

----------
Tested on: Inhibin beta A chain (activin A)
method_notes: INHBA (activin A) binders on microarrays, primary screen, biochemical, small-molecule microarray, 635 nm fluorescence scan (AID 1107);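 also: mouse activin A protein probed at 4.33 µg/mL on printed slides; score merges bound-protein fluorescence near 667 nm with spot signal-to-noise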
test_context: small-molecule microarray binding, higher = more signal
endpoint_label: composite z-score
Respond with the number and no other words.

Example cases with answers are listed next.
1. C=CCNC(=O)[C@H]1[C@@H]2C(=O)O[C@@H](c3ccccc3)[C@@H](c3ccccc3)N2[C@@H](c2ccccc2OCCO)[C@]12C(=O)N(C(=O)OCCOC)c1ccc(C#CC3=CCCCC3)cc12	1.41
2. CN1C(=O)C2C(C1=O)C1C=C(c3ccc(CO)cc3)C2C(c2cccs2)N1Cc1cccc(OC(F)(F)F)c1 (stereo not drawn)	0.614
3. O=C(O)[C@H](Cc1ccccc1)n1cc(-c2ccccn2)nn1	0.325
4. CC(=O)N1Cc2ccccc2C[C@]2(N=C(c3ccc(OCCCO)cc3)O[C@@H]2c2ccccc2)C1=O	0.503
5. CN(C)C(=O)[C@@]1(Cc2ccccc2N=[N+]=[N-])COC(c2ccc(OCCCO)cc2)=N1	0.0217
6. COC(=O)[C@@]1(Cc2ccccc2)[C@H]2c3cc(C(=O)N4CCCC4)n(Cc4ccsc4Br)c3C[C@H]2CN1C(=O)c1ccccc1	0.748
7. NCCCCCCNC(=O)[C@H]1C[C@H]2C(=O)N[C@@H](Cc3ccccc3)C(=O)N2[C@H]1c1ccc(O)cc1	1.1

Prompt: // returns reported composite z-score for input COCCOC(=O)N1C(=O)[C@@]2(c3ccccc31)[C@H](c1ccc(OCCO)cc1)N1[C@H](c3ccccc3)[C@H](c3ccccc3)OC(=O)[C@H]1[C@@H]2C(=O)Nc1nc2ccccc2s1
Response: 0.34

----------
Test system: PRMT1 (protein arginine N-methyltransferase 1)
method_notes: PRMT1 binders on small-molecule microarrays, primary screen, biochemical, small-molecule microarray, 635 nm fluorescence (AID 1088);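 also: binding of Prmt1 protein to compounds spotted on small-molecule microarray slides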
test_context: small-molecule microarray binding, higher = more signal
The following compounds are listed with their measured composite z-score values.
Respond with the number and no other words.

1. [N-]=[N+]=NCc1ccccc1C[C@]1(C(=O)NCC(O)CO)N=C(c2ccc(OCCCO)cc2)O[C@H]1c1ccccc1CN=[N+]=[N-] (stereo not given in full)	1.56

Prompt: // returns reported composite z-score for input C[C@H]1C2=C3C(CC[C@H]4C(OCc5ccc(F)cc5C(F)(F)F)OC[C@](C)([C@@H]34)N(C(=O)OC(C)(C)C)C2)C2COC(=O)OCC21 (stereo not given in full)
Response: 0.63

Prompt: // returns reported composite z-score for input O=C1O[C@@H](c2ccccc2)[C@@H](c2ccccc2)N2[C@@H](c3ccccc3OCCO)[C@]3(C(=O)Nc4ccc(C#CC5=CCCCC5)cc43)[C@@H](C(=O)NC[C@H](O)c3ccccc3)[C@H]12
Response: 1.55

Prompt: // returns reported composite z-score for input C=CC[C@@]1(C(=O)O)N=C(c2ccc(OCCCO)cc2)O[C@@H]1c1ccccc1
Response: 1.11

All values here come from PubChem BioAssay.
